Origin of the recorded values: the supplement of paper PMC12636428

# Tested on: Saccharomyces cerevisiae
# Protocol: transcriptional activation domain activity (GFP:mCherry ratio, weighted mean of sorted bins, harmonized to initial dataset scale) (arbitrary fluorescence ratio units); higher = stronger transcriptional activation
# Condition Notes: beta-estradiol 1 µM; induction time 4 h
Quick rule for you: transcriptional activation domain activity at 40000 or higher means 1.0, lower means 0.0.

Worked examples, 3 sequences total:
>  <Macromolecule Sequence>
EGAASGTEEAPKPKKKKKQQPRKSKPRIDAASGTEAEPNAATESEAPAAAGAA

>  <Assigned Category>
0.0

$$$$
>  <Macromolecule Sequence>
MSEPPRKRAKLACVTCNARRVKCDVTDRHPCTNCAAGNVECETRESRRGKHVR

>  <Assigned Category>
0.0

$$$$
>  <Macromolecule Sequence>
FFAFTFILMMACLVSGIGWCLLYFTCMYLLLIYYILSLFFYSPLASCNSFFFF

>  <Assigned Category>
0.0

$$$$

Quick check, transcriptional activation domain activity >= 40000? MKSLPFGIHTAVCDLISLLLLLLLFFFFFFLLASIWVLDNFFPFFPFSRHLYS 0.0
